We begin with a simple list: items and their reported kon.
# MEASURED ON: T1, Soluble heterodimeric CD3 protein (hCD3-epsilon/hCD3-delta) with a human Fc tag (hFcΔAdp/hFc) or a mouse Fc … (human, UniProt P07766 23-126; P04234 22-105)
# T1 construct: also called hCD3ε/δ; not shown: Fc tag: human (hFcΔAdp/hFc); which tag was used in Ta
# MEASUREMENT DESCRIPTION: SPR Biacore, 25 C, antibody-capture format
Value expressed in M⁻¹ s⁻¹; do not type the unit.

Below are worked cases with known answers.
binder="H2M2707N (antibody, V domains shown, Hybridoma antibody, human variable regions, mouse IgG2 Fc) VH: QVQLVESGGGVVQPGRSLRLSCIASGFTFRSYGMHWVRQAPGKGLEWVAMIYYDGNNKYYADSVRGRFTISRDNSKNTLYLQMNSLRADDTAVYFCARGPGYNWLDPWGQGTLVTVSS VL: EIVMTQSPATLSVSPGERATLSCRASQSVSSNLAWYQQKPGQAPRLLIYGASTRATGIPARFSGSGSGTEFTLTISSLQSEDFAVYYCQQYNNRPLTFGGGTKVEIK" measured_number=29500
binder="H1M2712N (antibody, V domains shown, Mouse IgG1 Fc form) VH: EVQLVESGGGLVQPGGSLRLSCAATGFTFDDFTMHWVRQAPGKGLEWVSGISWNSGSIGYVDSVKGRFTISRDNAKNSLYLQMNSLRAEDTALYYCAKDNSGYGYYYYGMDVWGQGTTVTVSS VL: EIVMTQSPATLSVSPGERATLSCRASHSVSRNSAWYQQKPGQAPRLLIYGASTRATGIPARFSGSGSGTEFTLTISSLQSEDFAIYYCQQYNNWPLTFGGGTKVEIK" measured_number=9320

The record that follows has no kon shown yet.
Recorded kon (binder H2M3547N (antibody, V domains shown, Hybridoma antibody, human variable regions, mouse IgG2 Fc) VH: EAQLVESGGGLVQPGRSLRLSCTTSGFTFDDYTMHWVRQAPGKGLEWISDISWNGGTKGYADSVKGRFTISRDNAKNSLYLQMDSLRGEDTALYYCVKDKSGYGHFYFGLDVWGQGTTVTVSS VL: DIQMTQSPSSLTASVGDRVTFTCRASQSISRHLSWYQQKPGKAPKLLIYAASSLESGVPSRFSGSGSGTDFTLTISSLHPEDFATYYCQQSYSNPPITFGQGTRLEIK ): 21800
